- System: UO-31
- assayName: NCI tumour cell line growth inhibition, 48 h
The source made the active and inactive calls. No stated cut-off is given here; in the data, active = GI50 up to about 1.1 µM and inactive = higher.
Outcomes: yes for active, no for inactive

                                    compound  assignedcategory
 0  COc1ccc2c(c1)/C(=C(\C(Cl)=C(Cl)Cl)[N+](=O)[O-])N2                no
 1         COc1ccc(OC)c2c(=S)c3ccccc3[nH]c12                no
 2  Cc1cn(C2CC(O)C(Cn3nncc3Cn3nc(Br)c(=O)[nH]c3=O)O2)c(=O)[nH]c1=O (stereo unspecified)                no
 3  COc1ccc(CCCNC(=O)Cc2cc(OC)c(OC)cc2CO)cc1OC                no
 4           CN(C)C(=S)N/N=C\C=N/NC(=S)N(C)C               yes
 5  Cc1c2c(n3c(nc4ccccc43)c1C#N)N(c1ccc(F)cc1)CC2                no
 6  COC(=O)Cc1ccc2c(c1)Sc1ccc(CC(=O)OC)cc1N2C                no
 7  CC(C)[C@@H]1NC(=O)[C@@H]2N=C(O[C@H]2C)[C@H](C(C)C)NC(=O)C2N=C1O[C@H]2C                no
 8  CC(Cl)(/C=C/Cl)C(Cl)/C=C/C(Cl)(CCl)CBr (stereo unspecified)                no
 9           NC(=O)N=C(NCc1ccccc1)NCc1ccccc1                no
10  Clc1cccc(C2N3CCCCC3[C@@H]3c4[nH]c5ccccc5c4CCN23)c1 (stereo partly specified)                no
11    NCCNCCNCc1c2ccccc2c(CNCCNCCN)c2ccccc12                no
12         CCOP(=O)(Nc1ccc(-c2ccccc2)cc1)OCC                no
13  O=c1oc2ccccc2c(O)c1C(C/C(CCN1CCCC1)=N/O)c1ccccc1 (stereo unspecified)                no
14  Cc1ccc(NC(=O)CC2Sc3ccccc3NC2=O)cc1C (stereo unspecified)                no
15  CCOC(=O)c1nc2c3c(ncn2n1)Oc1c(c(-c2ccccc2)nn1-c1ccccc1)C3c1ccc(OC)c(OC)c1 (stereo unspecified)                no
16  CC(OC1CC(=O)CC2C(=O)C=CC(=O)C12)c1ccccc1 (stereo unspecified)                no
17                    N=C(N)SCCc1cn2ccccc2n1                no
18     COc1ccc(Nc2nc(N)c(C(=O)c3ccco3)s2)cc1                no
19            Cc1csc2n(C)c(=O)c3ccccc3[n+]12                no
20           CCCCCCCCCCCCCCCCNc1cccc2ccccc12                no
21  COc1cccc(NC(=O)/C(CS(=O)(=O)CCC(C(C)=O)C(C)=O)=N/NC(C)(C)C)c1                no
22  CC(C)(C)O/N=C/c1cc(NC(=S)c2ccccc2)ccc1Cl                no
23  C[N+]1(C)CCc2cc(O)c(O)cc2C1Cc1ccc(O)c(O)c1 (stereo unspecified)                no
24  O=C1CC(O)c2c(Br)sc(Br)c21 (stereo unspecified)                no
25  C1CCC2C(C1)CCCC2NC1=NCCO1 (stereo unspecified)                no
26  CCOC(=O)c1cccc(/N=N/c2ncc(/C=C/C(=O)OC)[nH]2)c1                no
27  COC(=O)c1ccccc1C1CN=NC12Cc1cccc(C)c1C2=O (stereo unspecified)                no
28  CCOC(=O)c1nc2ccc(C(F)(F)F)cc2nc1Nc1ccc(F)cc1                no
29              CN(C)CC[N+](C)(C)[BH2-]C(O)O                no
30  O=C1C(Cl)=C(N2CCN(CCOCCO)CC2)C(=O)c2ccccc21                no
31  CCOC(=O)CCC(NC(=O)c1ccc(Nc2nc3ccccc3nc2C(=O)OCC)cc1)C(=O)OCC (stereo unspecified)                no
32  O=C1CC(C[C@H](O)C2CCCCC2O)CC(=O)N1Cc1ccccc1 (stereo partly specified)                no
33           Cn1c(=O)c2[nH]c(N=O)nc2n(C)c1=O                no
34  O=C(CCc1cc(O)cc(O)c1)NCCc1cc(OCc2ccccc2)cc(OCc2ccccc2)c1                no
35  O=C(N/C(=C\c1ccc([N+](=O)[O-])cc1)c1nc2ccccc2[nH]1)c1ccccc1                no

* * *

- Tested on: CCRF-CEM
- assayName: NCI tumour cell line growth inhibition, 48 h
Calls of active or inactive are those of the source. No stated cut-off is given here; in the data, active = GI50 up to about 1.1 µM and inactive = higher.
GI50 by entry:
measuredEndpoint: GI50

>>> print(df.to_string())
                                    molecule               result
 0  O=C(NCc1ccccc1)c1cc2ccccc2o/c1=N\c1ccccc1F  > 100 µM (inactive)
 1  Fc1ccc(/N=C2C=C/C(=N\c3ccc(F)cc3)c3ccccc3\2)cc1  > 100 µM (inactive)
 2  CCO/N=C(/N)c1ncn(Cc2ccccc2)c1NCC(OCC)OCC  > 100 µM (inactive)
 3  COc1cc(/C=C2\N=C(C)N(n3c(-c4ccccc4)nc4ccccc4c3=O)C2=O)cc(OC)c1OC  > 100 µM (inactive)
 4  COc1ccc(C2c3cc4c(cc3OC3(OC)COC(=O)C23)OCO4)c(OC)c1 (configuration not stated)   4.32 µM (inactive)
 5                       CC(=O)CC[N+](C)(C)C   5.24 µM (inactive)
 6               NNc1cnn(-c2ccccc2)c(=O)c1Cl  > 100 µM (inactive)
 7  N#CC(c1nc2ccccc2s1)c1ncnc(Cl)c1[N+](=O)[O-] (configuration not stated)    0.361 µM (active)
 8  OC(CCNC12CC3CC(CC(C3)C1)C2)c1ccccc1 (configuration not stated)   60.5 µM (inactive)
 9  COC(=O)[C@]12CC=C3O[C@@H]4OC5(CCCCC5)O[C@@H]4[C@H]3C1C(=O)C=CC2=O (some centres not stated)   4.13 µM (inactive)
10  Cn1c(=O)oc2cc(C(=S)N3CCC(Cc4ccccc4)CC3)ccc21  > 100 µM (inactive)
11  Cc1ccc(NC(=O)CC2Sc3ccccc3NC2=O)cc1C (configuration not stated)   18.7 µM (inactive)
12  N#CC(c1ccccc1)N(CCc1ccccc1)C(=O)c1ccccc1 (configuration not stated)  > 100 µM (inactive)
13  Cc1ccc(NC(=O)/C(Cc2nc3ccc([N+](=O)[O-])cc3nc2O)=N\NC(=O)C[n+]2ccccc2)c(C)c1   26.6 µM (inactive)
14  c1ccc(C2OCC(OC3CCCCO3)CO2)cc1 (configuration not stated)   > 10 µM (inactive)
15  CC(C)NC(=O)OCCN=C1c2ccccc2C(Br)C(Br)c2ccccc21 (configuration not stated)     0.46 µM (active)
16  CN(C)c1ccc(-c2nc(-c3cc4c(ccc5ccccc54)oc3=O)cs2)cc1  > 100 µM (inactive)
17  COc1ccc(CCCNC(=O)Cc2cc(OC)c(OC)cc2CO)cc1OC  > 100 µM (inactive)
18  O=C(CC1(O)C(=O)Nc2ccc([N+](=O)[O-])cc21)c1ccc2ccccc2c1 (configuration not stated)  > 100 µM (inactive)
19  O=C1CC(O)c2c(Br)sc(Br)c21 (configuration not stated)    0.728 µM (active)
20  COc1ccc2cc(C(=O)Nc3ccc(O)c(C(=O)O)c3)ccc2c1OC  > 100 µM (inactive)
21  CN1CN(c2ccccc2)C2(CCN(CCc3csc4ccccc34)CC2)C1=O   12.3 µM (inactive)

* * *

- System: DMS-114
- assayName: NCI tumour cell line growth inhibition, 48 h
Active and inactive are the calls of the source. Rule as the data show it: active = GI50 up to about 1.1 µM and inactive = higher.
Classes used: active, inactive

In [3]: df
Out[3]:
                                   molecule  assignedcategory
0            COc1ccc2c3c(c(C(=O)O)oc13)CCC2          inactive
1  CC(OC1CC(=O)CC2C(=O)C=CC(=O)C12)c1ccccc1 (stereo not given)          inactive
2  CC(=O)Nc1ccc(-c2nnc(SCC(=O)Nc3cccc([N+](=O)[O-])c3)o2)cc1          inactive
3  COC(=O)C1=CC(O)CCC1c1ccc(OC)cc1 (stereo not given)          inactive
4  COc1cc(C2c3cc4c(cc3[C@@H](Nc3ccc5c(c3)OCCO5)C3COC(=O)[C@H]23)OCO4)cc(OC)c1O (stereo not given in full)            active
